A collection of compounds and their measured AC50
- assay.target: 5-hydroxytryptamine receptor 2B (Homo sapiens); also: assay procedure not described here
- Sequence (P41595 whole entry): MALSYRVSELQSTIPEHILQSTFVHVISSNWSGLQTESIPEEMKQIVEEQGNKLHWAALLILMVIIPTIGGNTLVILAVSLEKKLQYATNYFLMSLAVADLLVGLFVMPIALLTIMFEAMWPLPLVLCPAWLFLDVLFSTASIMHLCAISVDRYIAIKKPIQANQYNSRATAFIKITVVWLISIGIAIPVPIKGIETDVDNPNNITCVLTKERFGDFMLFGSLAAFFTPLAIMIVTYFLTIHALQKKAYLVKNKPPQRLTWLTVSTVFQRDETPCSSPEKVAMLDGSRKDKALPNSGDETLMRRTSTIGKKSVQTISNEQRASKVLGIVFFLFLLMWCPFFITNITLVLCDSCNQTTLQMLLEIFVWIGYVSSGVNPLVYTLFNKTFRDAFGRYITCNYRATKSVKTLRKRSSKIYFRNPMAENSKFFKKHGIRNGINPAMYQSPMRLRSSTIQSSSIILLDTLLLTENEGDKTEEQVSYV
- Format: functional, cell-based

Record excerpt, results attached:
Item O=C(CCCCCCC(=O)Nc1ccccc1)NO [VORINOSTAT] has what recorded AC50?
> 30 µM

What would you report for Cc1cc(-c2ccccc2)nnc1NCCN1CCOCC1 [MINAPRINE] ?
5.4 µM

Kindly consider the entry below.
Item C#CCN(C)[C@H](C)Cc1ccccc1 [SELEGILINE] has what recorded AC50?
> 10 µM

###

- assay.target: Cholecystokinin receptor type A (Homo sapiens); also: assay procedure not described here
- Sequence (P32238 whole entry): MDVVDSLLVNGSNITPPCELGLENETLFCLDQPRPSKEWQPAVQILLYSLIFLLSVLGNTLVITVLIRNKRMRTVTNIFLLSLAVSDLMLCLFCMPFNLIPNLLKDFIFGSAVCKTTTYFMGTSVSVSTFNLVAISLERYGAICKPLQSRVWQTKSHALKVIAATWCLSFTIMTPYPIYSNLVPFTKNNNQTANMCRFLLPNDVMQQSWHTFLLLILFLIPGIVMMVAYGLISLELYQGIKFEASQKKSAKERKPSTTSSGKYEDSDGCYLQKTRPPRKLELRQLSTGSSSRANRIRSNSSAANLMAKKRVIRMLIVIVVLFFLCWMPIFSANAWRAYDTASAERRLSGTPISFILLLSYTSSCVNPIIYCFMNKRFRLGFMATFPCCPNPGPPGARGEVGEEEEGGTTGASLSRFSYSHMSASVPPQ
quantity.name: AC50

Item C[C@H]1O[C@H](O[C@H]2[C@H](O)[C@@H](O)[C@@H](O[C@H]3[C@H](O)[C@@H](O)C(O)O[C@@H]3CO)O[C@@H]2CO)[C@H](O)[C@@H](O)[C@@H]1N[C@H]1C=C(CO)[C@@H](O)[C@H](O)[C@H]1O (some centres not stated) has what recorded AC50?
> 30 µM

What would you report for Nc1ncnc2c1ncn2[C@@H]1O[C@H](COP(=O)(O)O)[C@@H](O)[C@H]1O [ADENOSINE PHOSPHATE] ?
> 30 µM

What would you report for CCCCC(C)(O)C/C=C/[C@H]1[C@H](O)CC(=O)[C@@H]1CCCCCCC(=O)OC (some centres not stated) ?
> 30 µM

What would you report for CC(=O)N[C@H]1[C@H]([C@H](O)[C@H](O)CO)OC(C(=O)O)=C[C@@H]1N=C(N)N ?
> 30 µM

What would you report for O=C(Nc1ccccc1)OCC(CN1CCCCC1)OC(=O)Nc1ccccc1 (configuration not stated) ?
15 µM

---
Item COC(=O)C1=C(C)NC(C)=C(C(=O)OC(C)C)C1c1cccc2nonc12 (configuration not stated) has what recorded AC50?
> 30 µM

What would you report for CN1C(=O)CC(C)(c2ccccc2)C1=O (configuration not stated) [METHSUXIMIDE] ?
> 10 µM

These entries and their values trace back to ChEMBL document CHEMBL5291721.
